Would you mind telling me the reported composite z-score of each entry?
# protocol: probe aEGFR binding to arrayed compounds – biochemical, biotinylated probe, 635/667 nm fluorescence, primary screen (AID 1097);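 further: probe is a biotinylated anti-EGFR antibody binding compounds printed on slides; score combines fluorescence near 667 nm and signal to noise of each spot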
# experimentalConditions: small-molecule microarray, higher = more signal
One number for each entry.

As a guide, the following entries are already answered.
compound=CC(C)[Si](C#C[Si](C(C)C)(C(C)C)C(C)C)(O[C@H](C)c1cn(Cc2ccccc2)nn1)C(C)C quantityname="composite z-score" reading=0.0026
compound="CC(C)CCC[C@@H](C)[C@H]1CC[C@@]2(C)C3=C(CC[C@]12C)[C@@]1(C)CC[C@H](OC(=O)c2ccc(C(F)(F)F)nc2)C(C)(C)C1CC3 (some centres not stated)" quantityname="composite z-score" reading=-0.1
compound=COC(=O)[C@@]1(Cc2ccc(F)cc2)[C@H]2c3cc(C(=O)N(C)C)n(Cc4cc(C)n(C)n4)c3C[C@H]2CN1C(=O)c1ccccc1 quantityname="composite z-score" reading=0.14
compound=COC(=O)c1c(CC[C@@H](CO)NC(=O)N[C@@H](Cc2ccccc2)Cn2cc(-c3ccccn3)nn2)oc(C(=O)N2CCOCC2)c1C(=O)OC quantityname="composite z-score" reading=-0.183
compound=C=CC[C@]1(C(N)=O)N=C(c2ccc(OCCCO)cc2)O[C@H]1c1ccccc1 quantityname="composite z-score" reading=-0.165

Working through the 2 compounds below one at a time, give composite z-score for each.
1. Cc1ccc(S[C@]2(C(=O)NCC(C)C)CC(=O)N(Cc3cc(C(F)(F)F)cc(C(F)(F)F)c3)[C@@H]2c2ccc(CO)cc2)cc1
2. CCCC=C(CCC)[C@@H](NC(=O)OCC(C)C)c1ccccc1

Output line:
1. -0.073
2. 0.548

====

# protocol: compound effects on differentiated 3T3-L1 adipocyte viability – cell-based, 3T3-L1 adipocytes, calcein-AM fluorescence, 48 h, basal, profiling panel (AID 1163); further: test concentration not given here
# experimentalConditions: 3T3-L1 adipocytes viability, higher = more signal
Consider the cut-off 0.01. If the recorded z-score is strictly smaller, the label is Criterion met; if not, the label is Criterion not met.

Check out these entries, answers already filled in.
molecule=COC(=O)C(CC#Cc1ccc2c(c1)[C@]1(C(=O)N2)[C@H](c2ccc(O)cc2)N2[C@H](c3ccccc3)[C@H](c3ccccc3)OC(=O)[C@H]2[C@@H]1C(=O)N1CCN(c2ncccn2)CC1)C(=O)OC classname="Criterion met"
molecule=COc1ccc([Si](C)(C)[C@H]2[C@H](CC(=O)N3CCC[C@H]3CO)O[C@@]3(C(=O)N(Cc4cccc(N5CCOC5=O)c4)c4ccccc43)[C@@H]2C)cc1 classname="Criterion not met"
molecule=CC(C)(C)OC(=O)CC[C@@]1(C(=O)N2CCCCC2)N=C(c2ccc(OCCCO)cc2)O[C@@H]1c1ccccc1 classname="Criterion not met"
molecule=O=C1C[C@@](C(=O)NCc2ccccc2)(c2ccc([N+](=O)[O-])cc2)[C@@H](c2ccc(CO)cc2)N1CC12CC3CC(CC(C3)C1)C2 classname="Criterion not met"
molecule=C=C(CCCC)/C(=C/C[C@H](OC(C)=O)c1ccc(OCCO)cc1)c1cnc2ccccc2c1 classname="Criterion not met"

Input line: Strictly below 0.01 in z-score? `CO[C@H]1O[C@H](CO)[C@@H](OC(=O)Nc2ccccc2)[C@@H]2OC(=O)[C@@H](Cc3ccc4ccccc4c3)C/C=C/C[C@H](Cc3ccc4ccccc4c3)C(=O)O[C@@H]12`
Output line: Criterion not met

Input line: Would you kindly verify if z-score of `O=C(NCc1ccccc1)[C@@H]1c2ccccc2C(=O)N(C2Cc3ccccc3C2)[C@H]1c1ccc(CO)cc1` is strictly less than 0.01?
Output line: Criterion not met

Input line: hey, is z-score for CCCCN1CC=CC23O[C@@H]4C=CCCOC(=O)C4[C@H]2C(=O)N(CCCCCO)[C@@H]3C1=O (some centres undefined) lower than 0.01 or not?
Output line: Criterion not met

Input line: Dear colleague, could you confirm whether z-score of `C=CC[C@]1(C(=O)NCc2ccccc2)N=C(c2ccc(OCCCO)cc2)O[C@H]1c1ccccc1CN=[N+]=[N-]` falls below 0.01? Thanks.
Output line: Criterion not met

Input line: Take the molecule `COC(=O)C(CC#Cc1ccc2c(c1)[C@]1(C(=O)N2)[C@H](c2ccccc2OCCO)N2[C@H](c3ccccc3)[C@H](c3ccccc3)OC(=O)[C@H]2[C@@H]1C(=O)O)C(=O)OC` and say whether its z-score is less than 0.01.
Output line: Criterion not met
